target_under_test: UniProt Q12809
Sequence (Q12809 whole entry): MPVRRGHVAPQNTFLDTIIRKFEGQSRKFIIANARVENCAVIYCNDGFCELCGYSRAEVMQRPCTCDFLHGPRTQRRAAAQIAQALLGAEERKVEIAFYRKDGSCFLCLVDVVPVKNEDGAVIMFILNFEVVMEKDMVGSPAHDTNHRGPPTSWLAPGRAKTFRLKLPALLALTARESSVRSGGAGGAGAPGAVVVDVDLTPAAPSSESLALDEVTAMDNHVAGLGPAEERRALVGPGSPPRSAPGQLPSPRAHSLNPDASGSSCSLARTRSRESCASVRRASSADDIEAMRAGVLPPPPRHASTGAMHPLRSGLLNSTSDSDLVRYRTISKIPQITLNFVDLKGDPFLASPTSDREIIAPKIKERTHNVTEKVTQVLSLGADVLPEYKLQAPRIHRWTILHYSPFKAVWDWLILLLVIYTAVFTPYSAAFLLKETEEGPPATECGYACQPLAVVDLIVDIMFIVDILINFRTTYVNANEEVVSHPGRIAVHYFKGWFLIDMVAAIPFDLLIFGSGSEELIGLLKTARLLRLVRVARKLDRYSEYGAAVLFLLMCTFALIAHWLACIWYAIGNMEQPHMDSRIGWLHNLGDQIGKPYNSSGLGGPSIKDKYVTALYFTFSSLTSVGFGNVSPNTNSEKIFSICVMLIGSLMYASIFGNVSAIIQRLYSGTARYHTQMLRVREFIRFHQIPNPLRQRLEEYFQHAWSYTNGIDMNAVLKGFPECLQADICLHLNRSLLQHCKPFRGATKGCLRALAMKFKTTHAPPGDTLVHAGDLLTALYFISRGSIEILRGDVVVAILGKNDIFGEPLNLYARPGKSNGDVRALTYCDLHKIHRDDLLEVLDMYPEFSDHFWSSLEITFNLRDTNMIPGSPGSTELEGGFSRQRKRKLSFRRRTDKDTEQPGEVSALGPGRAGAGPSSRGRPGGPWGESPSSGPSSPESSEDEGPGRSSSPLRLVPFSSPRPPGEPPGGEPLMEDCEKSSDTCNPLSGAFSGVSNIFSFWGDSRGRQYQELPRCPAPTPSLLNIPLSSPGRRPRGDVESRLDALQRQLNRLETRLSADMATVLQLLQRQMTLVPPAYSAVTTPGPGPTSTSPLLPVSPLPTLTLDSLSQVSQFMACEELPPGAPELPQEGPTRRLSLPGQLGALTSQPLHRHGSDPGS
assay_details: Inhibition of human ERG by cell-based patch clamp method
Reported IC50 values follow for various compounds
measured_quantity: IC50

>>> print(df.to_string())
                         structure_notation  target_under_test  observed
0  COc1cc2c(cc1F)ncc(=O)n2C[C@H](N)[C@H]1CC[C@H](NCc2ncc3c(n2)NC(=O)CO3)CC1     UniProt Q12809  > 333 µM
1  N[C@@H](Cn1c(=O)cnc2ccc(F)cc21)[C@H]1CC[C@H](NCc2ccc3c(n2)NC(=O)CO3)CC1     UniProt Q12809    174 µM
2  N[C@@H](Cn1c(=O)cnc2ccc(F)cc21)[C@H]1CC[C@H](NCc2ncc3c(n2)NC(=O)CO3)CC1     UniProt Q12809  > 333 µM
3  COc1ccc2ncc(=O)n(C[C@H](N)[C@H]3CC[C@H](NCc4ccc5c(n4)NC(=O)CO5)CC3)c2c1     UniProt Q12809  > 333 µM
